Numbers sourced from paper PMC6151383.

# Tested on: Klebsiella pneumoniae D 11750/08
# stated.conditions: 24 h
For each record, write down the corresponding MIC KP 24 h.

The cases that follow already have their MIC KP 24 h on record.
compound	attribute.measured	value
O=S(=O)(Nc1ncccn1)c1ccc(N=Cc2ccccc2O)cc1	MIC KP 24 h	>500 µM
COc1ccc(O)c(C=Nc2ccc(S(=O)(=O)Nc3ncccn3)cc2)c1	MIC KP 24 h	>500 µM
O=S(=O)(Nc1ncccn1)c1ccc(N=Cc2cc(Br)ccc2O)cc1	MIC KP 24 h	500 µM
O=S(=O)(Nc1ncccn1)c1ccc(N=Cc2cc(Cl)cc(I)c2O)cc1	MIC KP 24 h	500 µM
Nc1ccc(S(=O)(=O)Nc2ncccn2)cc1 [SDZ 1, sulfadiazine, reference compound]	MIC KP 24 h	>500 µM

Could you tell me MIC KP 24 h for each of these compounds? They are listed below.
1. O=S(=O)(Nc1ncccn1)c1ccc(N=Cc2cccc(Cl)c2O)cc1
2. O=S(=O)(Nc1ncccn1)c1ccc(N=Cc2cc(Cl)cc(Cl)c2O)cc1
3. O=S(=O)(Nc1ncccn1)c1ccc(N=Cc2cc(F)ccc2O)cc1

1. >500 µM
2. >500 µM
3. >250 µM

Could you tell me MIC KP 24 h for each of these compounds? They are listed below.
1. O=[N+]([O-])c1ccc(C=Nc2ccc(S(=O)(=O)Nc3ncccn3)cc2)o1
2. O=[N+]([O-])c1ccc(O)c(C=Nc2ccc(S(=O)(=O)Nc3ncccn3)cc2)c1
3. O=S(=O)(Nc1ncccn1)c1ccc(N=Cc2c(O)cccc2Cl)cc1
4. O=S(=O)(Nc1ncccn1)c1ccc(N=Cc2cc(Cl)cc(Br)c2O)cc1
5. O=S(=O)(Nc1ncccn1)c1ccc(N=Cc2cc(I)ccc2O)cc1

1: 500 µM; 2: >500 µM; 3: >250 µM; 4: >500 µM; 5: 500 µM

Could you tell me MIC KP 24 h for each of these compounds? They are listed below.
1. O=S(=O)(Nc1ncccn1)c1ccc(N=Cc2cc(O)ccc2O)cc1
2. Cc1ccc(O)c(C=Nc2ccc(S(=O)(=O)Nc3ncccn3)cc2)c1

1. >500 µM
2. >250 µM

###

# System: Candida tropicalis 156
# assay.protocol: Antifungal microdilution broth MIC, C. tropicalis
# Type: cell-based
# stated.conditions: Candida tropicalis, 156, 48 h, read-out: MIC CT 48 h
attribute.measured: MIC (µM)
Give bare numbers, in µM.

The cases that follow already have their MIC on record.
smiles.record	MIC, µM
O=S(=O)(Nc1ncccn1)c1ccc(N=Cc2cc(Cl)cc(Cl)c2O)cc1	125
O=S(=O)(Nc1ncccn1)c1ccc(N=Cc2cccc(Cl)c2O)cc1	125
O=S(=O)(Nc1ncccn1)c1ccc(N=Cc2cc(Cl)cc(Br)c2O)cc1	62.5

Lab note: next compound to report on.
Note to self: MIC recorded for `O=S(=O)(Nc1ncccn1)c1ccc(N=Cc2cc(I)ccc2O)cc1` was 125

###

# Test system: Staphylococcus epidermidis H 6966/08
# assay.protocol: Antibacterial microdilution broth MIC, S. epidermidis
# Format: cell-based
# stated.conditions: Staphylococcus epidermidis, H6966/08, 24 h, read-out: MIC SE 24 h
attribute.measured: MIC (µM)
Give bare numbers, in µM.

The cases that follow already have their MIC on record.
molecule	MIC [µM]
COc1ccc(O)c(C=Nc2ccc(S(=O)(=O)Nc3ncccn3)cc2)c1 [Compound 2h]	62.5
Cc1ccc(O)c(C=Nc2ccc(S(=O)(=O)Nc3ncccn3)cc2)c1 [Compound 2g]	125

Lab note: next molecule to report on.
Note to self: MIC recorded for O=S(=O)(Nc1ncccn1)c1ccc(N=Cc2cc(I)ccc2O)cc1 [Compound 2e] was 62.5

###

For each record, write down the corresponding MIC.
# System: Candida glabrata 20/I
# assay.protocol: Antifungal microdilution broth MIC, C. glabrata
# Type: cell-based
# stated.conditions: Nakaseomyces glabratus, 48 h, read-out: MIC CG 48 h
Give bare numbers, in µM.

The cases that follow already have their MIC on record.
smiles.record	unit.descriptor	MIC
O=S(=O)(Nc1ncccn1)c1ccc(N=Cc2cc(Br)ccc2O)cc1	µM	62.5
O=S(=O)(Nc1ncccn1)c1ccc(N=Cc2cc(I)ccc2O)cc1	µM	62.5

Note to self: MIC recorded for `O=S(=O)(Nc1ncccn1)c1ccc(N=Cc2cccc(Cl)c2O)cc1` was 125

###

For each record, write down the corresponding MIC.
# System: Candida krusei E28
# assay.protocol: Antifungal microdilution broth MIC, C. krusei
# Format: cell-based
# stated.conditions: Pichia kudriavzevii, E28, 24 h, read-out: MIC CK 24 h
Numbers only, in µM.

The cases that follow already have their MIC on record.
smiles.record	attribute.measured	value
O=S(=O)(Nc1ncccn1)c1ccc(N=Cc2cc(I)ccc2O)cc1	MIC	62.5
O=S(=O)(Nc1ncccn1)c1ccc(N=Cc2cc(Cl)cc(Cl)c2O)cc1	MIC	62.5

Considering `O=S(=O)(Nc1ncccn1)c1ccc(N=Cc2cc(Cl)cc(Br)c2O)cc1` , its MIC with Candida krusei E28 was recorded as 62.5

###

# Tested on: Aspergillus fumigatus 231
# assay.protocol: Antifungal microdilution broth MIC, A. fumigatus
# Format: cell-based
# stated.conditions: Aspergillus fumigatus, 231; 48 h incubation; read-out: MIC AF 48 h
attribute.measured: MIC (µM)
Numbers only, in µM.

molecule	MIC [µM]
O=S(=O)(Nc1ncccn1)c1ccc(N=Cc2cc(Cl)cc(Br)c2O)cc1 [Compound 2n]	250

Note to self: MIC recorded for O=S(=O)(Nc1ncccn1)c1ccc(N=Cc2cc(Cl)cc(Cl)c2O)cc1 [Compound 2m] was 250

###

# System: Trichophyton interdigitale 445
# assay.protocol: Antifungal microdilution broth MIC, T. interdigitale
# Format: cell-based
# stated.conditions: Trichophyton interdigitale, 445, 72 h, read-out: MIC TI 72 h
attribute.measured: MIC (µM)
Give bare numbers, in µM.

The cases that follow already have their MIC on record.
smiles.record	attribute.measured	unit.descriptor	value
COc1ccc(O)c(C=Nc2ccc(S(=O)(=O)Nc3ncccn3)cc2)c1	MIC	µM	62.5
CC(C)(C)c1ccc(O)c(C=Nc2ccc(S(=O)(=O)Nc3ncccn3)cc2)c1	MIC	µM	62.5
O=S(=O)(Nc1ncccn1)c1ccc(N=Cc2cc(Cl)cc(Br)c2O)cc1	MIC	µM	62.5
O=S(=O)(Nc1ncccn1)c1ccc(N=Cc2cc(Br)ccc2O)cc1	MIC	µM	62.5

Could you tell me MIC for each of these compounds? They are listed below.
1. O=S(=O)(Nc1ncccn1)c1ccc(N=Cc2cc(Cl)cc(Cl)c2O)cc1
2. O=S(=O)(Nc1ncccn1)c1ccc(N=Cc2ccccc2O)cc1

1. 125
2. 125

###

# Test system: Candida albicans ATCC 44859
# assay.protocol: Antifungal microdilution broth MIC, C. albicans
# Assay type: cell-based
# stated.conditions: ATCC44859, 24 h, read-out: MIC CA 24 h
attribute.measured: MIC (µM)
Give bare numbers, in µM.

Could you tell me MIC for each of these molecules? They are listed below.
1. O=S(=O)(Nc1ncccn1)c1ccc(N=Cc2cc(I)ccc2O)cc1
2. O=S(=O)(Nc1ncccn1)c1ccc(N=Cc2cc(Br)ccc2O)cc1
3. O=S(=O)(Nc1ncccn1)c1ccc(N=Cc2cc(Cl)cc(Cl)c2O)cc1
4. O=S(=O)(Nc1ncccn1)c1ccc(N=Cc2cccc(Cl)c2O)cc1

62.5
125
62.5
62.5

###

For each record, write down the corresponding MIC KP 48 h.
# Test system: Klebsiella pneumoniae D 11750/08
# stated.conditions: 48 h

The cases that follow already have their MIC KP 48 h on record.
molecule	MIC KP 48 h
O=S(=O)(Nc1ncccn1)c1ccc(N=Cc2cccc(Cl)c2O)cc1 [Compound 2l]	>500 µM
O=S(=O)(Nc1ncccn1)c1ccc(N=Cc2cc(F)ccc2O)cc1 [Compound 2b]	>250 µM
O=S(=O)(Nc1ncccn1)c1ccc(N=Cc2cc(Cl)cc(I)c2O)cc1 [Compound 2o]	500 µM
O=S(=O)(Nc1ncccn1)c1ccc(N=Cc2cc(I)ccc2O)cc1 [Compound 2e]	500 µM
O=S(=O)(Nc1ncccn1)c1ccc(N=Cc2cc(Cl)cc(Cl)c2O)cc1 [Compound 2m]	>500 µM
O=S(=O)(Nc1ncccn1)c1ccc(N=Cc2cc(Cl)cc(Br)c2O)cc1 [Compound 2n]	>500 µM

Could you tell me MIC KP 48 h for each of these molecules? They are listed below.
1. O=[N+]([O-])c1ccc(O)c(C=Nc2ccc(S(=O)(=O)Nc3ncccn3)cc2)c1 [Compound 2f]
2. O=S(=O)(Nc1ncccn1)c1ccc(N=Cc2ccccc2O)cc1 [Compound 2a]
3. O=S(=O)(Nc1ncccn1)c1ccc(N=Cc2cc(O)ccc2O)cc1 [Compound 2i]
4. O=S(=O)(Nc1ncccn1)c1ccc(N=Cc2cc(Br)ccc2O)cc1 [Compound 2d]
5. O=S(=O)(Nc1ncccn1)c1ccc(N=Cc2c(O)cccc2Cl)cc1 [Compound 2k]
6. Cc1ccc(O)c(C=Nc2ccc(S(=O)(=O)Nc3ncccn3)cc2)c1 [Compound 2g]

1: >500 µM; 2: >500 µM; 3: >500 µM; 4: 500 µM; 5: >250 µM; 6: >250 µM
